# tested-system: ScHof1
# procedure-summary: SPOT peptide array binding signal intensity (averaged, normalized) (arbitrary units (background-subtracted, floor 0; scale differs between SH3 domains)); higher = stronger binding of the SH3 domain to the peptide
readout: SPOT peptide array binding signal intensity
Give the figure only, with no unit attached.

Illustrative cases are given below, each with its answer.
[
  {
    "binder": "PVLPPPRSPNRPTLS",
    "number": 63
  },
  {
    "binder": "QLMKNLPKIPLLNDI",
    "number": 11.2
  },
  {
    "binder": "DTFLPPPPPPPSNFE",
    "number": 25.5
  }
]

Now consider a different binder.
// SPOT peptide array binding signal intensity value for "PLQSKIPMLPSRRTM" : 79

src = the supplement of paper PMC4466140
